experiment: Once daily intravenous 10 mg/kg P5P for four days, urinary excretion and renal clearance (Example Four); type: in vivo, human; details: human, urine and plasma, iv, 10 mg/kg, P5P 10 mg/kg iv once daily, 4 days; Day 4; PAL; mean; read-out: CLR, renal clearance (converted)
property_name: CL renal (mL/min)

molecule	reported_value
Cc1ncc(CO)c(C=O)c1O [PAL, pyridoxal]	12.1

###

assay: Single intravenous dose escalation of P5P, plasma pharmacokinetics (Examples Two and Three); type: in vivo, human; conditions: both sexes, human, plasma, iv, 10 mg/kg, P5P 10 mg/kg single iv bolus, fasting; plasma; read-out: T½ (converted)

compound	half-life, h
Cc1ncc(COP(=O)(O)O)c(C=O)c1O [P5P, Pyridoxal 5′-phosphate, reference compound]	5.87

###

assay: Single intravenous dose escalation of P5P, plasma pharmacokinetics (Examples Two and Three); format: in vivo, human; settings: both sexes, human, plasma, iv, 10 mg/kg, Group 3, P5P 10 mg/kg single iv; plasma PA; mean

molecule	Cmax / ng/mL
Cc1ncc(CO)c(C(=O)O)c1O [PA, 4-pyridoxic acid]	5360

###

assay: Single intravenous dose escalation of P5P, plasma pharmacokinetics (Examples Two and Three); assay type: in vivo, human; conditions: Group 4, dose 10 mg/kg, single iv; plasma P5P; mean
property_name: Kel

molecule	property_name	reported_value
Cc1ncc(COP(=O)(O)O)c(C=O)c1O [P5P, Pyridoxal 5′-phosphate, reference compound]	Kel	0.14 h⁻¹

###

experiment: Single intravenous dose escalation of P5P, plasma pharmacokinetics (Examples Two and Three); type: in vivo, human; conditions: both sexes, human, plasma, iv, 10 mg/kg, Group 4, dose 10 mg/kg, single iv; plasma P5P; mean

compound	result_units	MRT
Cc1ncc(COP(=O)(O)O)c(C=O)c1O [P5P, Pyridoxal 5′-phosphate, reference compound]	h	3.32

###

assay: Single intravenous dose escalation of P5P, plasma pharmacokinetics (Examples Two and Three); format: in vivo, human; conditions: both sexes, human, plasma, iv, 5 mg/kg, Group 2, P5P 5 mg/kg single iv; plasma P5P; mean

compound	Vd / L
Cc1ncc(COP(=O)(O)O)c(C=O)c1O [P5P, Pyridoxal 5′-phosphate, reference compound]	16.3

###

Experiment: Single intravenous dose escalation of P5P, plasma pharmacokinetics (Examples Two and Three)
Format: in vivo, human
Settings: both sexes, human, plasma, iv, 10 mg/kg, Group 4, dose 10 mg/kg, single iv; plasma P5P; mean
Procedure: A phase one clinical trial was conducted to compare the pharmacokinetics of intravenously administered P5P and orally administered P5P. The trial was a single dose escalation study. […] P5P, pyridoxal, and 4-pyridoxic acid were evaluated in both plasma and urine over a 24 hour interval following either intravenous or oral dosing. […] Concentrations of pyridoxal-5′-phosphate (P5P) were measured from the plasma samples collected over a 24-bour interval after dosing in each phase. […]

compound	Vd / L
Cc1ncc(COP(=O)(O)O)c(C=O)c1O [P5P, Pyridoxal 5′-phosphate, reference compound]	17.5

###

assay: Single intravenous dose escalation of P5P, plasma pharmacokinetics (Examples Two and Three); format: in vivo, human; conditions: both sexes, human, plasma, iv, 20 mg/kg, Group 4, P5P 20 mg/kg single iv; plasma PAL; mean

molecule_smiles	Cmax (ng/mL)
Cc1ncc(CO)c(C=O)c1O	25900

###

assay: clinical; design: species or system human; details: human, in vivo, iv, 10 mg/kg, AUC0-τ

compound	AUC / ng·h/mL
Cc1ncc(COP(=O)(O)O)c(C=O)c1O [P5P, Pyridoxal 5′-phosphate, reference compound]	303000
Cc1ncc(CO)c(C=O)c1O	29700
Cc1ncc(CO)c(C(=O)O)c1O	21200
